test: chemical genetic growth profiling, strain panel (AID 1159580);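 further: tested at 20 µM; growth read once vehicle control cultures reached saturation at 30 °C; 1 = growth at the plate median or of vehicle wells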; conditions: S. cerevisiae deletion strains, growth OD, locus YNL233W, strain BNI4
Out of some 5,500 compounds screened, about 2,000 (36%) were called active. Not shown: some 18% with an inconclusive outcome. No stated cut-off is given here; in the data, active means normalized growth mostly below about 0.91 (no sharp cut-off); inconclusive means no clear call, values can overlap the other calls; inactive means mostly above about 0.92. The list shows a part of the results.
Field 'call' accepts active, inactive

Query: For CCCCCCCCCCCCCCCC[n+]1ccccc1 , what call appears in the results of this test?
Result: active

Query: For COc1cc([C@@H]2c3cc4c(cc3C(O[C@@H]3O[C@@H]5CO[C@@H](c6cccs6)OC5[C@H](O)[C@H]3O)C3COC(=O)[C@@H]32)OCO4)cc(OC)c1O (stereo partly specified) , what call appears in the results of this test?
Result: inactive

Query: For COc1ccc2c(=O)cc(-c3ccccc3OC)oc2c1 , what call appears in the results of this test?
Result: active

Query: For O=c1[nH]c2cc(Cl)c(Cl)cc2[nH]c1=O , what call appears in the results of this test?
Result: inactive

Query: For COc1cccc(-c2cc(=O)c3ccc(OC)cc3o2)c1 , what call appears in the results of this test?
Result: inactive

Query: For O=C(O)c1nc2cc(Cl)c(Cl)cc2[nH]c1=O , what call appears in the results of this test?
Result: inactive

---

experiment: chemical genetic growth profiling, strain panel (AID 1159580);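 further: tested at 20 µM; growth read once vehicle control cultures reached saturation at 30 °C; 1 = growth at the plate median or of vehicle wells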; details: S. cerevisiae deletion strains, growth OD, locus YCL069W, strain vba3, stronger effect = lower value
Out of some 5,500 compounds screened, about 2,000 (36%) were called active. Inconclusive results (about 18%) are left out. The list shows a part of the results.
Kindly supply the reported normalized growth values for the records listed here.
Lab note: jot down the number only; don't add units.

Query: For the compound shown here, O=C(O)c1cn(-c2ccc(F)cc2)c2cc(N3CCNCC3)c(F)cc2c1=O , give the reported normalized growth.
Result: 0.983

Query: For the compound shown here, CN1CCN2c3ccccc3Cc3ccccc3C2C1 (stereo unspecified) , give the reported normalized growth.
Result: 0.998

Query: For the compound shown here, CC[C@]12C=CCN3CC[C@@]4(c5ccc(OC)cc5N(C)C4[C@@](O)(C(=O)OC)[C@@H]1OC(C)=O)[C@@H]32 (stereo partly specified) , give the reported normalized growth.
Result: 1

Query: For the compound shown here, C[C@@H]1CC[C@@]2(OC1)OC1C(O)C3C4CC[C@H]5C[C@H](O[C@@H]6O[C@H](CO)[C@H](O[C@@H]7O[C@H](CO)[C@@H](O)[C@H](O[C@@H]8OC[C@@H](O)[C@H](O)[C@H]8O)[C@H]7O[C@@H]7O[C@H](CO)[C@H](O)[C@H](O[C@@H]8O[C@H](CO)[C@@H](O)[C@H](O)[C@H]8O)[C@H]7O)[C@H](O)[C@H]6O)[C@H](O)C[C@]5(C)C4CC[C@]3(C)C1[C@@H]2C (stereo partly specified) , give the reported normalized growth.
Result: 1.02

Query: For the compound shown here, Nc1nc(N)c2nc(-c3ccccc3)c(N)nc2n1 , give the reported normalized growth.
Result: 1

Query: For the compound shown here, CCCCOc1cc(CC2CNC(=O)N2)ccc1OC (stereo unspecified) , give the reported normalized growth.
Result: 0.994

Query: For the compound shown here, CC(=O)O[C@H]1C[C@H](O[C@H]2[C@@H](O)C[C@H](O[C@H]3[C@@H](O)C[C@H](O[C@H]4CC[C@@]5(C)C(CCC6C5C[C@@H](O)[C@]5(C)[C@@H](C7=CC(=O)OC7)CC[C@]65O)C4)O[C@@H]3C)O[C@@H]2C)O[C@H](C)[C@H]1O[C@@H]1O[C@H](CO)[C@@H](O)[C@H](O)[C@H]1O (stereo partly specified) , give the reported normalized growth.
Result: 0.993

Query: For the compound shown here, COc1ccc(-c2cc(=O)c3c(OC)c(OC)c(OC)c(OC)c3o2)cc1 , give the reported normalized growth.
Result: 0.934

Query: For the compound shown here, CC(=O)Oc1cc(-c2coc3cc(OC(C)=O)c(OC(C)=O)c(OC(C)=O)c3c2=O)cc(OC(C)=O)c1OC(C)=O , give the reported normalized growth.
Result: 0.96

Query: For the compound shown here, [N-]=[N+]=CC(=O)OCC(N)C(=O)O (stereo unspecified) , give the reported normalized growth.
Result: 1

Query: For the compound shown here, O=C(O)c1nc2cc(Cl)c(Cl)cc2[nH]c1=O , give the reported normalized growth.
Result: 1.01

Query: For the compound shown here, O=c1[nH]c2cc(Cl)c(Cl)cc2[nH]c1=O , give the reported normalized growth.
Result: 0.999

Query: For the compound shown here, O=c1c(-c2cc(O)c(O)c(O)c2)coc2cc(O)c(O)c(O)c12 , give the reported normalized growth.
Result: 0.996

Query: For the compound shown here, COc1ccc(-c2coc3cc(OC(C)=O)cc(OC(C)=O)c3c2=O)cc1 , give the reported normalized growth.
Result: 0.953

Query: For the compound shown here, CC1(C)O[C@@H]2CC3C4C[C@H](F)C5=CC(=O)C=C[C@]5(C)[C@@]4(F)[C@@H](O)C[C@]3(C)[C@]2(C(=O)CO)O1 (stereo partly specified) , give the reported normalized growth.
Result: 1.02

Query: For the compound shown here, CN(C)CCC=C1c2ccccc2CCc2ccccc21 , give the reported normalized growth.
Result: 0.987

---

assay: chemical genetic growth profiling, strain panel (AID 1159580);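 further: tested at 20 µM; growth read once vehicle control cultures reached saturation at 30 °C; 1 = growth at the plate median or of vehicle wells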; details: S. cerevisiae deletion strains, growth OD, locus YCL061C, strain MRC1 (second series), stronger effect = lower value
Screen size: about 5,500 compounds; about 2,000 (36%) were called active. Roughly 18% stayed inconclusive and do not appear here. Some of the results follow.
PROPERTY MEASURED: normalized growth
Lab note: jot down the number only; don't add units.

Query: For the compound shown here, O=C1CCc2cc(OCCCCc3nnnn3C3CCCCC3)ccc2N1 , give the reported normalized growth.
Result: 0.0772

Query: For the compound shown here, CN(C)CC/C=C1\c2ccccc2COc2ccccc21 , give the reported normalized growth.
Result: 0.992

Query: For the compound shown here, O=c1c(-c2ccc(O)cc2)coc2cc(O)cc(O)c12 , give the reported normalized growth.
Result: 1

Query: For the compound shown here, Nc1nc(N)c2nc(-c3ccccc3)c(N)nc2n1 , give the reported normalized growth.
Result: 0.989

Query: For the compound shown here, Cc1ccc(C(=O)O[C@H](C(=O)O)[C@H](OC(=O)c2ccc(C)cc2)C(=O)O)cc1 , give the reported normalized growth.
Result: 1

Query: For the compound shown here, CNCCC=C1c2ccccc2CCc2ccccc21 , give the reported normalized growth.
Result: 0.998

Query: For the compound shown here, CCCCOc1cc(CC2CNC(=O)N2)ccc1OC (stereo unspecified) , give the reported normalized growth.
Result: 1

Query: For the compound shown here, CN(C)CCC=C1c2ccccc2C=Cc2ccccc21 , give the reported normalized growth.
Result: 0.999

Query: For the compound shown here, O=c1c2ccccc2[se]n1-c1ccccc1 , give the reported normalized growth.
Result: 0.952

Query: For the compound shown here, O=C(c1cc(O)c(O)c([N+](=O)[O-])c1)c1ccccc1F , give the reported normalized growth.
Result: 0.953

Query: For the compound shown here, COC(=O)N1CCN(C(=O)Cc2ccc(Cl)c(Cl)c2)C(CN2CCCC2)C1 (stereo unspecified) , give the reported normalized growth.
Result: 1.01

---

test: chemical genetic growth profiling, strain panel (AID 1159580);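 further: tested at 20 µM; growth read once vehicle control cultures reached saturation at 30 °C; 1 = growth at the plate median or of vehicle wells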; settings: S. cerevisiae deletion strains, growth OD, locus YKL085W, strain MDH1
Among all 5,500 compounds or so, about 2,000 (36%) were called active. Another 18% or so got no clear call; they are omitted. No stated cut-off is given here; in the data, active means normalized growth mostly below about 0.91 (no sharp cut-off); inconclusive means no clear call, values can overlap the other calls; inactive means mostly above about 0.92. The list shows a part of the results.
Field 'call' accepts active, inactive

Query: For COc1ccc2c(=O)cc(-c3ccccc3OC)oc2c1 , what call appears in the results of this test?
Result: inactive

Query: For COc1cccc(-c2cc(=O)c3ccc(OC)cc3o2)c1 , what call appears in the results of this test?
Result: active

Query: For CC1(C)O[C@@H]2CC3C4CCC5=CC(=O)C=C[C@]5(C)[C@@]4(F)[C@@H](O)C[C@]3(C)[C@]2(C(=O)CO)O1 (some centres undefined) , what call appears in the results of this test?
Result: inactive

Query: For C#CCOS(=O)OC1CCCCC1Oc1ccc(C(C)(C)C)cc1 (centres undefined) , what call appears in the results of this test?
Result: inactive

Query: For CCC1C2CC3C4N(C)c5ccccc5C45CC(C2C5OC(C)=O)N3C1OC(C)=O (centres undefined) , what call appears in the results of this test?
Result: inactive

Query: For C[n+]1cc2c3c(ccc2c2ccc4cc5c(cc4c21)OCO5)OCO3 , what call appears in the results of this test?
Result: active

Query: For CC(=O)O[C@@H]1CC2C(C)(C)C(=O)CC[C@]2(C)C2CC[C@@]3(C)[C@H](c4ccoc4)OC(=O)C4OC43[C@@]21C (some centres undefined) , what call appears in the results of this test?
Result: inactive

Query: For COc1cc2cc[n+]3cc4c(OC)c(OC)ccc4cc3c2cc1OC , what call appears in the results of this test?
Result: inactive

Query: For COc1ccc2cc3[n+](cc2c1OC)CCc1cc2c(cc1-3)OCO2 , what call appears in the results of this test?
Result: inactive
